Can you tell me ddG of mutation (higher = less stable) for the items I'm about to list?
B1: Ribonuclease, P00648 (parent)
chain: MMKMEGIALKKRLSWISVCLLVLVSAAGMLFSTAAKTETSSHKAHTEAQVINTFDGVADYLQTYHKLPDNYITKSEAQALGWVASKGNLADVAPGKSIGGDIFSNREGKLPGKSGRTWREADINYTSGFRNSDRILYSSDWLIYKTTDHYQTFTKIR

Variants of: B1
EXPERIMENTAL_PARAMETERS: Bacillus amyloliquefaciens; pH 6.3; 25 °C; Urea; Fluorescence; MES 50 mM; reversible: yes; structure 1BNI; whole UniProt chain shown
Respond with the bare value in kcal/mol.

State the recorded ddG of mutation (higher = less stable) for this entry: E120A
2.3

// repeat for H149A and report
0.24

// repeat for N105D and report
-0.4

// repeat for Y150F and report
0

// repeat for Q151A and report
0.16

// repeat for R106A and report
-0.64

// repeat for S104A and report
-0.15

// repeat for D101N and report
2.67

// repeat for K74A and report
-0.36
